# reported Binding of serum SARS-green to linear peptides of protein X1 of SARS-CoV Urbani; entries follow
System: antibodies in sera from SARS patients (sera 1a, 1b, 2, 6, 37, 62, London, SARS-yellow, SARS-green)
Assay type: binding, human
assayEndpoint: Binding of serum SARS-green to linear peptides of protein X1 of SARS-CoV Urbani

residues: PFGWLVIGVAFLAVF
obsValue: 0.3

residues: HTIDGSSGVANPAMD
obsValue: 0.6

residues: DTGIENATFFIFNKL
obsValue: 0.3

residues: VTEGDGISTPKLKED
obsValue: 0.1

residues: MEAQFLYLYALIYFL
obsValue: 0.0

residues: LLLFVTIYSHLLLVA
obsValue: 0.0

residues: YFLQCINACRIIMRC
obsValue: 0.3

###

Test system: antibodies in sera from SARS patients (sera 1a, 1b, 2, 6, 37, 62, London, SARS-yellow, SARS-green)
Format: binding, human
# reported Binding of serum SARS-yellow to looped/cyclic peptides of protein X2 of SARS-CoV Urbani; entries follow
assayEndpoint: Binding of serum SARS-yellow to looped/cyclic peptides of protein X2 of SARS-CoV Urbani

residues: STALQELLIQQWIQF
obsValue: 0.5
//
residues: LCKHKKVSTNLGTHS
obsValue: 0.5
//
residues: THRMCKYTQSTALQE
obsValue: 0.3
//
residues: STNLCTHSFRKKQVR
obsValue: 0.5
//
residues: LKMLHSSSLTSLLKT
obsValue: 0.2
//
residues: LLKTHRMCKYTQSTA
obsValue: 0.2
//
residues: SSSLTSLLKTHRMCK
obsValue: 0.5
//
residues: TAFQHQNSKKTTKLV
obsValue: 0.3
//
residues: AISPKFTTSLSLHKL
obsValue: 0.4
//
residues: ITVSQIQLSLLKVTA
obsValue: 0.6
//
residues: ILRIGTQVLKTMSLY
obsValue: 0.6
//
residues: CLCKHKKVSTNLCTH
obsValue: 0.4
//
residues: LQELLIQQWIQFMMS
obsValue: 0.3
//
residues: QSTALQELLIQQWIQ
obsValue: 0.4
//
residues: LSLHKLLQTLVLKML
obsValue: 0.6

###

# reported Binding of serum 1a to looped/cyclic peptides of protein N of SARS-CoV Urbani; entries follow
System: antibodies in sera from SARS patients (sera 1a, 1b, 2, 6, 37, 62, London, SARS-yellow, SARS-green)
Format: binding, human
Set-up: unit not given here
assayEndpoint: Binding of serum 1a to looped/cyclic peptides of protein N of SARS-CoV Urbani

residues: GTWLTYHGAIKLDDK
obsValue: 0.2
--
residues: VRGGDGKMKELSPRW
obsValue: 0.3
--
residues: YYLGTGPEASLPYGA
obsValue: 0.4
--
residues: AQPLPQRQKKQPTVT
obsValue: 0.2
--
residues: DSTDNNQNGGRNGAR
obsValue: 0.4
--
residues: PRITFGGPTDSTDNN
obsValue: 0.3
--
residues: EQTQGNFGDQDLIRQ
obsValue: 0.3
--
residues: ATKQYNVTQAFGRRG
obsValue: 0.4
--
residues: AEGSRGGSQASSRSS
obsValue: 0.4
--
residues: QASSRSSSRSRGNSR
obsValue: 0.3
--
residues: QLQNSMSGASADSTQ
obsValue: 0.3
--
residues: KKKTDEAQPLPQRQK
obsValue: 0.2
--
residues: PRGQGVPINTNSGPD
obsValue: 0.2
--
residues: DMDDFSRQLQNSMSG
obsValue: 0.3

###

Tested on: antibodies in sera from SARS patients (sera 1a, 1b, 2, 6, 37, 62, London, SARS-yellow, SARS-green)
Assay type: binding, human
# reported Binding of serum London to looped/cyclic peptides of protein M of SARS-CoV Urbani; entries follow
assayEndpoint: Binding of serum London to looped/cyclic peptides of protein M of SARS-CoV Urbani

residues: ARTRSMWSFNPETNI
obsValue: 0.2
--
residues: AYNRYRIGNYKLNTD
obsValue: 0.4
--
residues: WIMLLQFAYSNRNRF
obsValue: 0.2
--
residues: IVGLMWLSYFVASFR
obsValue: 0.2
--
residues: ACIVGLMWLSYFVAS
obsValue: 0.2
--
residues: LWPVTLACFVLAAVY
obsValue: 0.2
--
residues: PETNILLNVPLRGTI
obsValue: 0.3
--
residues: QWNLVIGFLFLAWIM
obsValue: 0.2
--
residues: MACIVGLMWLSYFVA
obsValue: 0.2
--
residues: KQLLEQWNLVIGFLF
obsValue: 0.3
--
residues: RYRIGNYKLNTDHAG
obsValue: 0.4
--
residues: LFARTRSMWSFNPET
obsValue: 0.2
--
residues: ELKQLLEQWNLVIGF
obsValue: 0.3

###

System: antibodies in sera from SARS patients (sera 1a, 1b, 2, 6, 37, 62, London, SARS-yellow, SARS-green)
Assay type: binding, human
assayEndpoint: Binding of serum 2 to looped/cyclic peptides of protein X2 of SARS-CoV Urbani

residues: TAFQHQNSKKTTKLV
obsValue: 0.2
--
residues: ITVSQIQLSLLKVTA
obsValue: 0.4
--
residues: RRLLACLCKHKKVST
obsValue: 0.1
--
residues: WIQFMMSRRRLLACL
obsValue: 0.1
--
residues: ISPKFTTSLSLHKLL
obsValue: 0.4
--
residues: KVSTNLCTHSFRKKQ
obsValue: 0.5
--
residues: SSSLTSLLKTHRMCK
obsValue: 0.1
--
residues: FMMSRRRLLACLCKH
obsValue: 0.3
--
residues: TTSLSLHKLLQTLVL
obsValue: 0.4

###

# reported Rabbit serum looped peptides; entries follow
Test system: rabbit serum obtained by immunizing a rabbit with the SARS-CoV strain Frankfurt 1
Type: binding
Parameters: unit not given here

residues: YSTAWLCALGKVLPF
targetDesc: rabbit serum obtained by immunizing a rabbit with the SARS-CoV strain Frankfurt 1
Rabbit serum looped peptides: 1.0

residues: HYQECVRGTTVLLKE
targetDesc: rabbit serum obtained by immunizing a rabbit with the SARS-CoV strain Frankfurt 1
Rabbit serum looped peptides: 0.5

residues: CQDPAGGALIARCWY
targetDesc: rabbit serum obtained by immunizing a rabbit with the SARS-CoV strain Frankfurt 1
Rabbit serum looped peptides: 0.6

residues: QFAYSNRNRFLYIIK
targetDesc: rabbit serum obtained by immunizing a rabbit with the SARS-CoV strain Frankfurt 1
Rabbit serum looped peptides: 1.2

###

System: control sera (pooled serum of ten healthy LUMC hospital workers; commercial negative donor pooled serum from the Dutch bloodbank)
Type: binding, human
Parameters: unit not given here
Please mark Criterion met if the recorded Binding of Control serum Blood-bank to linear peptides is equal to or greater than 0.7, and Criterion not met if it falls below.

residues: QELYSPLFLIVAALV
categoryLabel: Criterion not met

residues: IQLSLLKVTAFQHQN
categoryLabel: Criterion not met

residues: GSQASSRSSSRSRGN
categoryLabel: Criterion met

residues: SPKLFIRQEEVQQEL
categoryLabel: Criterion not met

residues: RHTYQLRARSVSPKL
categoryLabel: Criterion met

residues: KTTKLVVILRIGTQV
categoryLabel: Criterion not met

residues: QTVTKKSAAEASKKP
categoryLabel: Criterion met

residues: QVLKTMSLYMAISPK
categoryLabel: Criterion met

residues: FLAVFQSATKIIALN
categoryLabel: Criterion not met

residues: EDYQIGGYSEDRHSG
categoryLabel: Criterion not met

residues: GMEAQFLYLYALIYF
categoryLabel: Criterion not met

residues: QEEVQQELYSPLFLI
categoryLabel: Criterion met

residues: DTGIENATFFIFNKL
categoryLabel: Criterion not met

residues: TDSTDNNQNGGRNGA
categoryLabel: Criterion met

residues: VILRIGTQVLKTMSL
categoryLabel: Criterion met

residues: TGIENATFFIFNKLV
categoryLabel: Criterion met

residues: LRARSVSPKLFIRQE
categoryLabel: Criterion not met

residues: YYRRATRRVRGGDGK
categoryLabel: Criterion not met

residues: TVSQIQLSLLKVTAF
categoryLabel: Criterion not met

residues: MRFFTLGSITAQPVK
categoryLabel: Criterion not met

residues: MAISPKFTTSLSLHK
categoryLabel: Criterion met

residues: AAGMEAQFLYLYALI
categoryLabel: Criterion not met

residues: PRQKRTATKQYNVTQ
categoryLabel: Criterion met

residues: TSLSLHKLLQTLVLK
categoryLabel: Criterion met

residues: AEGSRGGSQASSRSS
categoryLabel: Criterion met

residues: QWIQFMMSRRRLLAC
categoryLabel: Criterion met

residues: KVSTNLCTHSFRKKQ
categoryLabel: Criterion met

residues: SSSLTSLLKTHRMCK
categoryLabel: Criterion met

residues: SLSLHKLLQTLVLKM
categoryLabel: Criterion not met

residues: LNTPKDHIGTRNPNN
categoryLabel: Criterion met

residues: TDTIVVTEGDGISTP
categoryLabel: Criterion not met

residues: YFTEVYYQLESTQIT
categoryLabel: Criterion not met

residues: CLKILVRYNTRGNTY
categoryLabel: Criterion met

residues: AAFRDVLVVLNKRTN
categoryLabel: Criterion not met

residues: YFVCWHTHNYDYCIP
categoryLabel: Criterion not met

residues: LDRLNQLESKVSGKG
categoryLabel: Criterion met

residues: LPQGTTLPKGFYAEG
categoryLabel: Criterion met

residues: LNQLESKVSGKGQQQ
categoryLabel: Criterion met

residues: GVANPAMDPIYDEPT
categoryLabel: Criterion not met

residues: IYSHLLLVAAGMEAQ
categoryLabel: Criterion not met

residues: ITMTTVYHITVSQIQ
categoryLabel: Criterion not met

residues: FTTSLSLHKLLQTLV
categoryLabel: Criterion not met

residues: LIVAALVFLILCFTI
categoryLabel: Criterion not met
